system: OVCAR-8 ovarian; assay: NCI-60 one-dose screen, 48 h; settings: 10 µM unless noted
Compounds without any hit were thinned out: in the full panel of roughly 83,000, 20% have a hit. Active and inactive are the calls of the source. Rule for the calls: active = growth percent below 10; inactive = the rest.
Write down one outcome, taken from active, inactive

How was `O=C(Nc1ccncc1F)c1cn(CC2CC2)c2ccccc12` classified in this test?
inactive

How was `CC[C@H](C)[C@H](NC(=O)c1nccn1C)C(=O)N(C)[C@H](C[C@@H](OC(C)=O)c1nc(C(=O)N[C@@H](Cc2ccccc2)C[C@H](C)C(=O)OC)cs1)C(C)C` classified in this test?
inactive

How was `COC(=O)[C@@H](C)C[C@H](Cc1ccccc1)NC(=O)c1csc(CC[C@H](C(C)C)N(C)C(=O)[C@@H](NC(=O)[C@H]2CCCCN2C)C(C)C)n1` classified in this test?
inactive

How was `COC(=O)[C@@H](C)C[C@H](Cc1ccccc1)NC(=O)c1nc([C@@H](C[C@H](C(C)C)N(C)C(=O)[C@@H](NC(=O)[C@H]2CCCCN2C)C(C)C)OC(C)=O)sc1C(C)C` classified in this test?
active

###

Consider the following compounds; for each one, report its growth.
tested on: PC-3 prostate; test: NCI-60 one-dose screen, 48 h (100 = growth as untreated, 0 = no growth, -100 = all killed); settings: 10 µM unless noted
About 83,000 compounds went through this panel and 20% of them were active in at least one assay; those are over-represented in the sample as a whole.
Give the value, in units of %, as a plain number.

Report measured growth; entry is `COc1ccc(/C=C\c2cc(OC)c(OC)c(OC)c2)c(NS(=O)(=O)c2ccc(Cl)cc2)c1O`
26.1

Report measured growth; entry is `CC(=O)O[C@H](C[C@H](C(C)C)N(C)C(=O)[C@@H](NC(=O)[C@H]1CCCCN1C)C(C)C)c1cccc(C(=O)N[C@@H](Cc2ccccc2)C[C@H](C)C(=O)O)n1`
26.4

Report measured growth; entry is `CCN(CC)CCOC(=O)C(OC(C)C)(c1ccccc1)c1ccccc1`
83.7

###

Consider the following molecules; for each one, report its growth.
tested on: T-47D breast; assay: NCI-60 one-dose screen, 48 h (100 = growth as untreated, 0 = no growth, -100 = all killed); conditions: 10 µM unless noted
Compounds without any hit were thinned out: in the full panel of roughly 83,000, 20% have a hit. Activity calls are given as the source filed them. How the source made its calls: active means growth percent below 10; inactive means the rest.

Report measured growth; entry is `COc1cc(/C=C/[N+](=O)[O-])cc(OC)c1`
-1.67% (active)

Report measured growth; entry is CCC(CC)CC1(C)CC2(C)CCOC2OO1 (stereo not drawn)
97.8% (inactive)

Report measured growth; entry is `CC(C)(NC(=O)O[C@@H]1CN2CCC1CC2)c1csc(-c2ccc(F)cc2)n1`
88.3% (inactive)

Report measured growth; entry is `CC1=C(CCCNS(C)(=O)=O)C2=C(C)C3(CC3)[C@@](C)(O)C(=O)C2=C1`
-11.2% (active)

Report measured growth; entry is `Nc1nnnc2nc[nH]c12`
-26.6% (active)

Report measured growth; entry is `CC[C@H](C)[C@@H]1OC(=O)C(C)(C)[C@H](O)[C@H](Cc2ccccc2)OC(=O)[C@H](C(C)C)OC(=O)[C@@H](NC(=O)c2cccc(NC=O)c2O)[C@@H](C)OC1=O`
33.2% (inactive)

Report measured growth; entry is `COC(=O)[C@@H](C)C[C@H](Cc1ccccc1)NC(=O)c1csc([C@@H](C[C@H](C(C)C)N(C)C(=O)[C@@H](NC(=O)[C@H]2CCCCN2C)C2CC2)OC(C)=O)n1`
73% (inactive)

Report measured growth; entry is `Cc1ccc(C(=O)NCCCOc2ccc(N3C(N)=NC(N)=NC3(C)C)cc2Cl)cc1S(=O)(=O)F`
104% (inactive)

Report measured growth; entry is `c1cc2c(c3c1CCNC3)OCO2`
90.4% (inactive)

Report measured growth; entry is `O=[N+]([O-])c1cnc[nH]1`
117% (inactive)

Report measured growth; entry is `CC[C@]12C=CCN3CC[C@@]4(c5ccc(OC)cc5N(C)[C@H]4[C@@](O)(C(=O)OC)[C@@H]1OC(=O)CCCC[P+](c1ccccc1)(c1ccccc1)c1ccccc1)[C@@H]32`
4.99% (active)

Report measured growth; entry is `CCn1c2ccccc2c2cc(C(=O)c3ccc(C)c4ccccc34)ccc21`
53.6% (inactive)

Report measured growth; entry is CCCCCCCCCCCCCCCCCC1OC[C@@H](COC(=O)O[C@@H](C(=O)O[C@H]2C[C@@]3(O)[C@@H](OC(=O)c4ccccc4)[C@@H]4[C@]5(OC(C)=O)CO[C@@H]5C[C@H](O)[C@@]4(C)C(=O)[C@H](OC(C)=O)C(=C2C)C3(C)C)[C@@H](NC(=O)c2ccccc2)c2ccccc2)O1 (stereo partly drawn)
51.9% (inactive)
